# TEST_SYSTEM: r5-HT2C (Rattus norvegicus)
# Sequence (P08909 33-460): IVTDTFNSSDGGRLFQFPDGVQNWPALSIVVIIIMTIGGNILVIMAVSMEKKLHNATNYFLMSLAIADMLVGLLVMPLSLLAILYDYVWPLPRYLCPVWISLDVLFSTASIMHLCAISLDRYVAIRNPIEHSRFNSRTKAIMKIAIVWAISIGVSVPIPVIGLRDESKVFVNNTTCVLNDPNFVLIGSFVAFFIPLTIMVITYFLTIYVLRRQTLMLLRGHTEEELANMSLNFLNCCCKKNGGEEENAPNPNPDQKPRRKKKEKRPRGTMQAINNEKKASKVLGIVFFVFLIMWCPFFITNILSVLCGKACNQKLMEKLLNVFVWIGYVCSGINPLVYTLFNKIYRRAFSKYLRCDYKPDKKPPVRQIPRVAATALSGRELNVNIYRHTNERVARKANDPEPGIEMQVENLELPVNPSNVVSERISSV
# METHOD_NOTES: Ca2+ mobilization assay
# Assay type: cell-based
# EXPERIMENTAL_SETUP: read-out: r5-HT2C EC50; Ca2+ mobilization
QUANTITY_MEASURED: pEC50
Reminder that pEC50 means the negative base-10 logarithm of the concentration expressed in mol/L.

Prompt line: What pEC50 value was documented for this compound, `COc1ccc2[nH]cc(CCNCc3cccc(C)c3)c2c1` ?
Response line: 6.72

###

# TEST_SYSTEM: 5-HT6 (Homo sapiens)
# Sequence (P50406 whole entry): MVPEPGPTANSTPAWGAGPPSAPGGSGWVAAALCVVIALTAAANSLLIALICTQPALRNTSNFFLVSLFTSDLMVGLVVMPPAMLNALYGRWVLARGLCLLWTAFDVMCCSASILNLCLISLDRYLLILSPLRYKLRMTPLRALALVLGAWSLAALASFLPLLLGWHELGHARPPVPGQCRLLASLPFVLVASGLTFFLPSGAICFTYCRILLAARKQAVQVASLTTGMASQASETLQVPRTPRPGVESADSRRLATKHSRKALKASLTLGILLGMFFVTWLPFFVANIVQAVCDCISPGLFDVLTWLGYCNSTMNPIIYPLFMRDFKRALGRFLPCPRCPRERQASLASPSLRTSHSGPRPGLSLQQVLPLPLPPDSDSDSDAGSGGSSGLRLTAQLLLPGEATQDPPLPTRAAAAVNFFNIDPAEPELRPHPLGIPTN
# METHOD_NOTES: PDSP screening affinity 5-HT6
# Format: binding
# EXPERIMENTAL_SETUP: 5-HT6 affinity
pKi: −log10 of the molar value.
Parameter threshold = 7. Response is met when pKi meets or exceeds it, else not met.

Please review the entries below; each comes with its answer.
QUERY_SMILES: COc1cc(CCNCc2ccc(Br)cc2)c(OC)cc1I
TEST_SYSTEM: 5-HT6 (Homo sapiens)
LABEL_CLASS: not met
--
QUERY_SMILES: COc1ccc2[nH]cc(CCNCc3cccc(F)c3)c2c1
TEST_SYSTEM: 5-HT6 (Homo sapiens)
LABEL_CLASS: met
--
QUERY_SMILES: COc1ccc2[nH]cc(CCNCc3ccc(Br)cc3)c2c1
TEST_SYSTEM: 5-HT6 (Homo sapiens)
LABEL_CLASS: not met
--
QUERY_SMILES: COc1ccc(CNCCc2c[nH]c3ccc(OC)cc23)cc1
TEST_SYSTEM: 5-HT6 (Homo sapiens)
LABEL_CLASS: not met
--
QUERY_SMILES: COc1cc(CCNCc2cccc(Br)c2)c(OC)cc1I
TEST_SYSTEM: 5-HT6 (Homo sapiens)
LABEL_CLASS: not met
--
QUERY_SMILES: COc1ccc2[nH]cc(CCNCc3cccc(Br)c3)c2c1
TEST_SYSTEM: 5-HT6 (Homo sapiens)
LABEL_CLASS: met

Alright, here's another molecule for you.
Prompt line: In plain terms: is recorded pKi at least 7 for `COc1cc(CCNCc2ccccc2OC)c(OC)cc1I` ?
Response line: met

###

Consider the following compounds and their measured pEC50 readings.
# TEST_SYSTEM: h5-HT2A (Homo sapiens)
# Sequence (P28223 whole entry): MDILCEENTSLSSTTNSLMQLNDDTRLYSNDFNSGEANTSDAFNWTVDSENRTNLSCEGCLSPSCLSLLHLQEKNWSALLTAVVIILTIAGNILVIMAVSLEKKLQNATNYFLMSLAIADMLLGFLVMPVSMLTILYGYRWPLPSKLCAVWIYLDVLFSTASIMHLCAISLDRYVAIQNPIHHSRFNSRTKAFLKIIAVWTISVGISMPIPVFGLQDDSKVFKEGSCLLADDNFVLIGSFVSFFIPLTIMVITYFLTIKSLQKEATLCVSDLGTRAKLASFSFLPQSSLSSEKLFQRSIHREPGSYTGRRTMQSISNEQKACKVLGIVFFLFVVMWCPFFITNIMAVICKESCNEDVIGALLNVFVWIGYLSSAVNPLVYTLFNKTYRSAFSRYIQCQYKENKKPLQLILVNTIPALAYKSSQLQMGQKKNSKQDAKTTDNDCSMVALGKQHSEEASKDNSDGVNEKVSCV
# METHOD_NOTES: Ca2+ mobilization assay
# Format: cell-based
Reminder that pEC50 means the negative base-10 logarithm of the concentration expressed in mol/L.

Consider the worked cases shown below.
QUERY_SMILES: COc1cccc(CNCCc2c[nH]c3ccc(OC)cc23)c1
TEST_VALUE: 8.21

QUERY_SMILES: COc1ccc(CNCCc2cc(OC)c(I)cc2OC)cc1
TEST_VALUE: 7.22

QUERY_SMILES: COc1cccc(CNCCc2cc(OC)c(I)cc2OC)c1
TEST_VALUE: 7.55

QUERY_SMILES: COc1cc(CCNCc2ccccc2OC)c(OC)cc1I
TEST_VALUE: 8.38

QUERY_SMILES: COc1ccc2[nH]cc(CCNCc3ccccc3Br)c2c1
TEST_VALUE: 7.52

QUERY_SMILES: COc1ccc2[nH]cc(CCNCc3ccccc3OC)c2c1
TEST_VALUE: 8.72

QUERY_SMILES: COc1ccc2[nH]cc(CCNCc3ccc(Br)cc3)c2c1
TEST_VALUE: 6.37

QUERY_SMILES: COc1ccc2[nH]cc(CCNCc3cccc(SC)c3)c2c1
TEST_VALUE: 7.49

QUERY_SMILES: COc1cc(CCNCc2ccccc2Br)c(OC)cc1I
TEST_VALUE: 7.38

QUERY_SMILES: COc1cc(CCNCc2cccc(Br)c2)c(OC)cc1I
TEST_VALUE: 7.77

Prompt line: Query the reported pEC50 for h5-HT2A (Homo sapiens); item: `COc1ccc2[nH]cc(CCNCc3cccc(C(F)(F)F)c3)c2c1`
Response line: 7.06

Prompt line: Next compound up: `COc1ccc(CNCCc2c[nH]c3ccc(OC)cc23)cc1`
Response line: 7.38

Prompt line: Next compound up: `COc1ccc2[nH]cc(CCNCc3cccc(Br)c3)c2c1`
Response line: 7.89

Prompt line: Next compound up: `COc1ccc2[nH]cc(CCNCc3cccc(I)c3)c2c1`
Response line: 7.80

Prompt line: Next compound up: `COc1ccc2[nH]cc(CCNCc3cccc(Cl)c3)c2c1`
Response line: 7.85

Prompt line: Next compound up: `COc1cc(CCNCc2ccc(Br)cc2)c(OC)cc1I`
Response line: 6.77

Prompt line: Next compound up: `COc1ccc2[nH]cc(CCNCc3cccc(F)c3)c2c1`
Response line: 8.00

###

# TEST_SYSTEM: UniProt P41595
# METHOD_NOTES: PDSP screening affinity 5-HT2B
# Type: binding
# EXPERIMENTAL_SETUP: 5-HT2B pKi ± SEM
pKi: −log10 of the molar value.
Parameter threshold = 8. Response is y when pKi meets or exceeds it, else n.

Prompt line: In plain terms: is recorded pKi at least 8 for COc1ccc2[nH]cc(CCNCc3cccc(SC)c3)c2c1 [Compound 5l] ?
Response line: y

Prompt line: Next molecule up: COc1cc(CCNCc2ccccc2OC)c(OC)cc1I [Compound 1]
Response line: y

Prompt line: Next molecule up: COc1ccc(CNCCc2c[nH]c3ccc(OC)cc23)cc1 [Compound 5c]
Response line: n

###

# TEST_SYSTEM: 5-HT2B (Homo sapiens, UniProt P41595)
# Sequence (P41595 whole entry): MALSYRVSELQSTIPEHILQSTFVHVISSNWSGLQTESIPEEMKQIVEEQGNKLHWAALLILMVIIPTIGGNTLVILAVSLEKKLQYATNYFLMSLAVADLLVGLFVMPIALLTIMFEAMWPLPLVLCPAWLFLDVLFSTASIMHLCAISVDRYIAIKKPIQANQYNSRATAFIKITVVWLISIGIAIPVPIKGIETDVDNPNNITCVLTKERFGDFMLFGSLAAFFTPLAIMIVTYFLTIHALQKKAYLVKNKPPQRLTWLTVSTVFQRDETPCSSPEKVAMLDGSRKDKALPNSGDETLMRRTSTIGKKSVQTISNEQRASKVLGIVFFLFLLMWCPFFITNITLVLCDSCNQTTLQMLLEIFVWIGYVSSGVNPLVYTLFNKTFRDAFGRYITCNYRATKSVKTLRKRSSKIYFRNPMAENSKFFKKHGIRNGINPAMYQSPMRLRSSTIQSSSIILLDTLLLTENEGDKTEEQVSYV
# METHOD_NOTES: PDSP screening affinity 5-HT2B
# Type: binding
# EXPERIMENTAL_SETUP: 5-HT2B affinity
QUANTITY_MEASURED: pKi
Reminder that pKi means the negative base-10 logarithm of the concentration expressed in mol/L.

Consider the worked cases shown below.
COMPOUND: COc1ccc2[nH]cc(CCNCc3cccc(Cl)c3)c2c1 [Compound 5h]
pKi: 8.18

COMPOUND: COc1cc(CCNCc2ccc(Br)cc2)c(OC)cc1I [Compound 4e]
pKi: 7.17

COMPOUND: COc1cc(CCNCc2ccccc2Br)c(OC)cc1I [Compound 4c]
pKi: 7.70

COMPOUND: COc1ccc2[nH]cc(CCNCc3ccc(Br)cc3)c2c1 [Compound 5f]
pKi: 6.82

COMPOUND: COc1ccc(CNCCc2c[nH]c3ccc(OC)cc23)cc1 [Compound 5c]
pKi: 7.48

COMPOUND: COc1cccc(CNCCc2c[nH]c3ccc(OC)cc23)c1 [Compound 5b]
pKi: 8.60

Prompt line: What pKi value was documented for this compound, COc1ccc2[nH]cc(CCNCc3cccc(I)c3)c2c1 [Compound 5i] ?
Response line: 9.12

Prompt line: Next compound up: COc1ccc2[nH]cc(CCNCc3ccccc3OC)c2c1 [Compound 5a]
Response line: 8.05

Prompt line: Next compound up: COc1cccc(CNCCc2cc(OC)c(I)cc2OC)c1 [Compound 4a]
Response line: 8.34

###

Consider the following compounds and their measured Emax readings.
# TEST_SYSTEM: r5-HT2C (Rattus norvegicus)
# METHOD_NOTES: Ca2+ mobilization assay
# Format: cell-based
# EXPERIMENTAL_SETUP: read-out: r5-HT2C Emax
Please give a number only; it is taken to be in %.

Consider the worked cases shown below.
QUERY_SMILES: COc1cc(CCNCc2ccccc2OC)c(OC)cc1I
QUANTITY_MEASURED: Emax
TEST_VALUE: 104
//
QUERY_SMILES: COc1cc(CCNCc2cccc(Br)c2)c(OC)cc1I
QUANTITY_MEASURED: Emax
TEST_VALUE: 101

Prompt line: Query the reported Emax for r5-HT2C (Rattus norvegicus); item: `COc1cc(CCNCc2ccccc2Br)c(OC)cc1I`
Response line: 104

###

# TEST_SYSTEM: 5-HT7 (Homo sapiens)
# Sequence (P34969 whole entry): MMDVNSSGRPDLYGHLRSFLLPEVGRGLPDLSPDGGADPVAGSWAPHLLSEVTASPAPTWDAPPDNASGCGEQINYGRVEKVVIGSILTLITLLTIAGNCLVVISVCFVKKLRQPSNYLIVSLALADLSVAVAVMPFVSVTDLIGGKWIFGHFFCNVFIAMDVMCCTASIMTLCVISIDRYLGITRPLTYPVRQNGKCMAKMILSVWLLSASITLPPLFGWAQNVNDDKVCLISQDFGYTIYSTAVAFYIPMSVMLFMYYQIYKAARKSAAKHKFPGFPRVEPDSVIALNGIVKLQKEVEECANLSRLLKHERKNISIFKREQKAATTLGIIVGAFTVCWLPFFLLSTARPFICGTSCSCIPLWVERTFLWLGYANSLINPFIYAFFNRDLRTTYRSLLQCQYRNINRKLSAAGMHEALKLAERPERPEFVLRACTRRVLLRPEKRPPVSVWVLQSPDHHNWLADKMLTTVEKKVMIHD
# METHOD_NOTES: PDSP screening affinity 5-HT7
# Format: binding
# EXPERIMENTAL_SETUP: 5-HT7 affinity
Consider the following compounds and their measured pKi readings.
Reminder that pKi means the negative base-10 logarithm of the concentration expressed in mol/L.

Consider the worked cases shown below.
COMPOUND: COc1ccc2[nH]cc(CCNCc3ccccc3Br)c2c1 [Compound 5d]
TEST_SYSTEM: 5-HT7 (Homo sapiens)
QUANTITY_MEASURED: pKi
TEST_VALUE: 5.96

COMPOUND: COc1ccc2[nH]cc(CCNCc3ccc(Br)cc3)c2c1 [Compound 5f]
TEST_SYSTEM: 5-HT7 (Homo sapiens)
QUANTITY_MEASURED: pKi
TEST_VALUE: 6.45

COMPOUND: COc1ccc2[nH]cc(CCNCc3cccc(C(F)(F)F)c3)c2c1 [Compound 5k]
TEST_SYSTEM: 5-HT7 (Homo sapiens)
QUANTITY_MEASURED: pKi
TEST_VALUE: 6.58

COMPOUND: COc1cc(CCNCc2cccc(Br)c2)c(OC)cc1I [Compound 4d]
TEST_SYSTEM: 5-HT7 (Homo sapiens)
QUANTITY_MEASURED: pKi
TEST_VALUE: 6.45

Switching to the query record.
Prompt line: What pKi value was documented for this compound, COc1ccc2[nH]cc(CCNCc3cccc(SC)c3)c2c1 [Compound 5l] ?
Response line: 6.87

// provenance: paper PMC4505863
